Origin of values: ChEMBL document CHEMBL5113540

study system: UniProt:Q92769
assay method text: Inhibition of full length recombinant C-terminal FLAG-tagged human HDAC2 expressed in baculovirus-infected Sf9 cells measured for 2 hrs by fluorescence-based assay
For each of the compounds below, state its pIC50.
One number for each entry, as −log10 of the molar value.

• O=C1CCC(c2ccc([C@H]3CN[C@@H](C(=O)N4Cc5ccccc5C4)C3)cc2)N1 (stereo in doubt; 11) = 4.74
• N#Cc1cccnc1N1CCN(C(=O)[C@H]2C[C@@H](c3cccc(Cl)c3)CN2)CC1 = 6.07
• O=C([C@H]1C[C@@H](c2ccccc2)CN1)N1CCN(c2nccc3ccsc23)CC1 = 5.77

Your task in this section: give pIC50 for each listed record.
1. O=C1CCC(c2ccc([C@H]3CN[C@@H](C(=O)N4Cc5ccccc5C4)C3)cc2)N1 (stereo in doubt; 10)
2. O=C([C@H]1C[C@@H](c2ccccc2)CN1)N1Cc2ccccc2C1
3. O=C([C@H]1C[C@@H](c2ccccc2)CN1)N1CCCC1
4. N#Cc1cccnc1N1CCN(C(=O)[C@H]2C[C@@H](c3ccccc3)CN2)CC1
5. O=C([C@H]1C[C@@H](c2cccc(Cl)c2)CN1)N1CCN(c2nccc3ccsc23)CC1
6. N[C@H](CCc1ccccc1)C(=O)N1CCCC1

4.59
5.19
4.59
5.74
6.30
3.96

Dear reader, for each entry below, please note its pIC50.
1. CN(C)C(=O)C(N)Cc1ccc(F)cc1 (configuration not stated)
2. O=C([C@H]1C[C@@H](c2ccc(Cl)cc2)CN1)N1Cc2ccccc2C1
3. O=C([C@H]1C[C@@H](c2cccc(Cl)c2)CN1)N1Cc2ccccc2C1

1: 3.00; 2: 5.40; 3: 5.55

----------
assay method text: Cmax in C57BL/6 mouse plasma at 30 mg/kg, po measured upto 24 hrs by LC-ESI-MS/MS analysis
Type: ADME, organism-based
Set-up: time < 24 hrs, dose 30 mg/kg, route po
measured parameter: Cmax (ng/mL)
Numbers only, in ng/mL.

Give me measured Cmax, please, for this molecule: `O=C([C@H]1C[C@@H](c2cccc(Cl)c2)CN1)N1CCN(c2nccc3ccsc23)CC1`
2400

----------
assay method text: Cmax in C57BL/6 mouse brain at 30 mg/kg, po measured upto 24 hrs by LC-ESI-MS/MS analysis
Format: ADME, organism-based
Set-up: dose 30 mg/kg, time < 24 hrs, route po
measured parameter: Cmax (ng/g)
One number for each entry, in ng/g.

Please give the documented Cmax of `O=C([C@H]1C[C@@H](c2cccc(Cl)c2)CN1)N1CCN(c2nccc3ccsc23)CC1`
2300

----------
assay method text: Lipophilicity, log D of the compound at pH 7.4
Assay type: physicochemical
run parameters: buffer
measured parameter: logD
Answers are plain numbers.

Identify measured logD corresponding to `O=C([C@H]1C[C@@H](c2cccc(Cl)c2)CN1)N1CCN(c2nccc3ccsc23)CC1`
3.9

----------
assay method text: Unbound brain-to-plasma concentration ratio in C57BL/6 mouse by LC-MS/MS analysis
Type: ADME
run parameters: read-out: K(p,uu,brain)
measured parameter: Kp uu
Numbers only.

Give a short answer stating reported Kp uu for `O=C([C@H]1C[C@@H](c2cccc(Cl)c2)CN1)N1CCN(c2nccc3ccsc23)CC1` .
0.36

----------
study system: Histone deacetylase 2 (Homo sapiens, UniProt Q92769)
Sequence (Q92769 whole entry): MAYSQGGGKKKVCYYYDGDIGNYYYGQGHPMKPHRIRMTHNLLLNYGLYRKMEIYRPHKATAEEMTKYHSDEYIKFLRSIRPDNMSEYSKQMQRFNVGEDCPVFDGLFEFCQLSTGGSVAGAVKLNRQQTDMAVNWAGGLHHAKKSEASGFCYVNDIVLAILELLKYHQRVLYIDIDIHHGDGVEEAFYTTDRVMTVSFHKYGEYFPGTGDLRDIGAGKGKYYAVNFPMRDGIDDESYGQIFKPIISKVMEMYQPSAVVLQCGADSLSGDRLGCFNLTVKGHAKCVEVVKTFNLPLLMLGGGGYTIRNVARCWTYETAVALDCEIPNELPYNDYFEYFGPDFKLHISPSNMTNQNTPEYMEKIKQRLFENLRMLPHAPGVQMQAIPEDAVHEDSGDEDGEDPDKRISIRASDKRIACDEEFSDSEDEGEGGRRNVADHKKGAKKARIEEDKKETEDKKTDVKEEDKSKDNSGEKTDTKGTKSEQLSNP
assay method text: Inhibition of full length recombinant C-terminal FLAG-tagged human HDAC2 expressed in baculovirus-infected Sf9 cells at 1 mM measured for 2 hrs by fluorescence-based assay relative to control
Task for the reader: assign each of the following molecules its reported inhibition.
Numbers only, in %.

Please review the following examples before continuing.
• Cc1cc(O)cc(=O)o1 = 4
• O=C1CCC(c2ccc(Cl)cc2)N1 (centres undefined) = 9

State the recorded inhibition for every item in the following list.
1. CN(C)C(=O)C(N)Cc1ccc(F)cc1 (centres undefined)
2. O=C(O)Cc1ccccc1

58
40
